These measurements were taken from PubChem BioAssay (Tox21).

# MEASURED TARGET: Androgen receptor (Homo sapiens) (UniProt P10275)
# Sequence (P10275 whole entry, looked up): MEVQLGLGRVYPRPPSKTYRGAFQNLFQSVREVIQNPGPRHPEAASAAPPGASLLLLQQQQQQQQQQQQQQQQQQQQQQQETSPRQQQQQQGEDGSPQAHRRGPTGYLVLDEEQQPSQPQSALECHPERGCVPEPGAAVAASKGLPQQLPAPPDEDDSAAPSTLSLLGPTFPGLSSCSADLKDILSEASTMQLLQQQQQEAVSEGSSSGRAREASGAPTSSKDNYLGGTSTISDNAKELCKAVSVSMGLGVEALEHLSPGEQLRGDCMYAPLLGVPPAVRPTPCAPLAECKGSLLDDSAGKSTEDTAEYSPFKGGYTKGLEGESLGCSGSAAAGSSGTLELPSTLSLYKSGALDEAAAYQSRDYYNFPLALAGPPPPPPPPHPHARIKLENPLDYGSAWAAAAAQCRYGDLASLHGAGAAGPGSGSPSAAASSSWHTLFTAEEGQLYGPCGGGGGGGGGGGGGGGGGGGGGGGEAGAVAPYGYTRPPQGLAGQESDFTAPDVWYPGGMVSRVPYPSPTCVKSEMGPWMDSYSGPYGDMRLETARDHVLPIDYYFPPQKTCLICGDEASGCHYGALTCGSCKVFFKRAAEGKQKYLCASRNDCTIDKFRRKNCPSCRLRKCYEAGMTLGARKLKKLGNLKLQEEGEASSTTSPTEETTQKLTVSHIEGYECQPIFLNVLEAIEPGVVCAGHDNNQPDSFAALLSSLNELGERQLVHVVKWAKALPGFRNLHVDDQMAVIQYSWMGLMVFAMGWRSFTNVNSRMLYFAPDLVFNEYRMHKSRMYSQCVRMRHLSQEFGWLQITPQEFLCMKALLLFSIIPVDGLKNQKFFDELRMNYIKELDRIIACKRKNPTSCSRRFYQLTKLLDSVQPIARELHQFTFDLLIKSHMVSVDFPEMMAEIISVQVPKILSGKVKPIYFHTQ
# EXPERIMENT DESCRIPTION: qHTS assay to identify small molecule antagonists of the androgen receptor (AR) signaling pathway using the MDA cell line in the presence of 0.5 nM R1881 (AID 1259243); also: nearly all actives have a fitted effect of over 50% in size
# STATED CONDITIONS: MDA-kb2 MMTV-luciferase, R1881 0.5 nM, 16 h; series mostly up to 92.4 µM
Records with an inconclusive call do not appear. The source made the active and inactive calls. Calls follow the shape of the dose curve; as a rule, active = well fitted inhibition curve with a large enough effect in the repeat runs; inconclusive = weak or mixed curves; inactive = no such curve, though single readings can be large or run the other way.
Form entry, call: pick from 1 = active, -1 = inactive

Please review the entries below; each comes with its answer.
>>> print(df.to_string())
                                   compound                           measured_target  category_label
0  NS(=O)(=O)C(F)(F)C(F)(F)C(F)(F)C(F)(F)C(F)(F)C(F)(F)C(F)(F)C(F)(F)F  Androgen receptor (Homo sapiens) (UniProt P10275)              -1
1          COC1=CC(=O)O[C@@H](CCc2ccccc2)C1  Androgen receptor (Homo sapiens) (UniProt P10275)               1
2               O=C(Nc1ccccc1)Nc1ccnc(Cl)c1  Androgen receptor (Homo sapiens) (UniProt P10275)               1

INPUT: Hi, do you know how `Cc1ccc(-c2c(Cl)nc(C#N)n2S(=O)(=O)N(C)C)cc1` came out in this test?
OUTPUT: 1

INPUT: Hi, do you know how `Cc1cc(=O)[nH]o1` came out in this test?
OUTPUT: -1

INPUT: Called result for COP(=S)(Oc1cc(Cl)c(Br)cc1Cl)c1ccccc1 (stereo not given)
OUTPUT: 1

INPUT: Outcome logged for `C[C@]12CC[C@H]3[C@@H](CCC4=CC(=O)CC[C@@H]43)[C@@H]1CC[C@@H]2OC(=O)CCC1CCCCC1` in this assay:
OUTPUT: -1

INPUT: What call does the record list for `O=S1(=O)OC(c2cc(Br)c(O)c(Br)c2)(c2cc(Br)c(O)c(Br)c2)c2ccccc21` ?
OUTPUT: 1

INPUT: Tell me the assay call for `Cc1ccccc1C(=O)Nc1cccc(OC(C)C)c1` please.
OUTPUT: -1

INPUT: Outcome? `O=C(NC(=O)c1c(F)cccc1F)Nc1cc(Cl)c(Oc2ncc(C(F)(F)F)cc2Cl)c(Cl)c1`
OUTPUT: 1

###

# EXPERIMENT DESCRIPTION: qHTS assay to identify small molecule antagonists of the estrogen related receptor (ERR) signaling pathway - cell viability counter screen (AID 1224818);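 also: viability measured after 17.5 h of compound exposure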
# STATED CONDITIONS: ERR reporter cell line viability counter screen; series mostly up to 92.2 µM
Results filed as inconclusive are left out. Activity calls are given as the source filed them. Calls come from the whole dose curve; as a rule, active = well fitted cell-killing curve with a large enough effect in the repeat runs; inconclusive = weak or mixed curves; inactive = flat fitted curve, though single readings scatter.
TEST READOUT: outcome

>>> print(df.to_string())
                   cpd_smiles  test_readout  endpoint_result
0  c1cc2ccc3cccc4ccc(c1)c2c34       outcome         inactive
1         C=CC(=O)NCNC(=O)C=C       outcome         inactive
2                    NC(=O)CI       outcome         inactive

###

# MEASURED TARGET: Cytochrome P450 2D6 (Homo sapiens) (UniProt P10635)
# Sequence (P10635 whole entry, looked up): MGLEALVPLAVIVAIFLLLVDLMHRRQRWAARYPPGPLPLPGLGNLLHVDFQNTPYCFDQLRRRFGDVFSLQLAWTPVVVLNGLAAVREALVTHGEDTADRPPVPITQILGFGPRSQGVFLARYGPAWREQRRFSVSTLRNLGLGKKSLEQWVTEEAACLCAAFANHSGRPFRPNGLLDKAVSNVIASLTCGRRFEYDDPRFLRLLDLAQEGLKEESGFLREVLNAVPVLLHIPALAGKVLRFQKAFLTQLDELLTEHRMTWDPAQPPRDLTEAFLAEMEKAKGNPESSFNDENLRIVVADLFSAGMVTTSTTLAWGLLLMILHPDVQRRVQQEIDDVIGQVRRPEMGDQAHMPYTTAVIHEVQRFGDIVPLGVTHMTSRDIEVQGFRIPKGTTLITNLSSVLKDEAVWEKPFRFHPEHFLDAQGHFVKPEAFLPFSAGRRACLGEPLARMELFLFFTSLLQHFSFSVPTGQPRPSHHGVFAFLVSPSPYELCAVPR
# EXPERIMENT DESCRIPTION: Cytochrome P450 Family 2 Subfamily D Member 6 (CYP2D6) small molecule antagonists: luciferase reporter qHTS assay (AID 1671196); also: nearly all actives have a fitted effect of over 50% in size; also: potency is read from the fitted curve at half-maximal effect
# STATED CONDITIONS: P450-Glo CYP2D6 enzyme assay, luciferin luminescence, 1 h; series mostly up to 115 µM
Records with an inconclusive call do not appear. Active and inactive are the calls of the source. Calls come from the whole dose curve; as a rule, active = well fitted inhibition curve with a large enough effect in the repeat runs; inconclusive = weak or mixed curves; inactive = no such curve, though single readings can be large or run the other way.
TEST READOUT: Potency

Example entries begin here.
>>> df
                                  compound   endpoint_result
0                          Cc1ccc2ccccc2c1          inactive
1  CCOC(=O)C(Cl)C(C)=O (centres undefined)          inactive
2                               [O-][Cl+]O          inactive
3   O=C(NCc1cccnc1)Nc1ccc([N+](=O)[O-])cc1  35.6 µM (active)
4                            C=C(C#N)CCC#N          inactive

List the reported Potency of each compound below.
1. Clc1ccc(C2(Cn3cncn3)CC(Br)CO2)c(Cl)c1 (centres undefined)
2. O=C(OC1CCCCC1)c1ccccc1C(=O)OC1CCCCC1

OUTPUT:
1: 31.5 µM (active); 2: inactive

Quick request: Potency for each listed item, please.
1. CC1Sc2c(C(=O)O)c(=O)c3cc(F)c(N4CCNCC4)cc3n21 (centres undefined)
2. C(=NC1CCCCC1)=NC1CCCCC1
3. N#Cc1cc(I)c(O)c(I)c1
4. CC[C@H]1C[C@H]2[C@@H]3CCC4=CC(=O)CC[C@@H]4[C@H]3CC[C@]2(C)[C@H]1O

OUTPUT:
1. inactive
2. 63.3 µM (active)
3. inactive
4. inactive

Provide each entry's Potency from the list below.
1. CC(=O)NC1CCSC1=O (centres undefined)
2. Nc1nc(N)nc(N)n1
3. O=Cc1ccc2c(c1)OCO2

OUTPUT:
1: inactive; 2: inactive; 3: inactive
